target: Fibroblast growth factor 22 (Homo sapiens); assay: binders of human FGF22 protein, primary screen, FGF22 synaptogenesis inhibitor project, biophysical, thermal shift, single point (AID 651658); settings: recombinant FGF22 thermal shift, SYPRO orange fluorescence; at 9.99 µM; hits give high values; percent of sucrose octasulfate shift, DMSO zero
Hit rate of the full screen: of about 340,000 compounds, about 5,100 (1.5%) were called active. For the sample, actives were picked, then their nearest neighbours and some compounds at random.
# reported activity (Tm shift, normalised); entries follow
Expressed in %, but write only the number.

Field: example entries. Status: answers known.
C[C@H]1CN([C@@H](C)CO)C(=O)c2cc(NC(=O)Cc3cn(C)c4ccccc34)ccc2O[C@@H]1CN(C)Cc1ccc(Cl)c(Cl)c1    0.161
CCCC#Cc1cnc2c(c1)C(=O)N([C@@H](C)CO)C[C@@H](C)[C@@H](CN(C)Cc1ccccc1F)O2    -0.354
O=C(NCC1CC1)[C@@H]1[C@@H](CO)[C@@H]2Cn3c(ccc(-c4ccccc4)c3=O)[C@H]1N2C(=O)C1CC1    0.292
O=C1c2ccccc2C(=O)N1CCCCCCN1C(=O)c2ccccc2C1=O    -0.045

Fibroblast growth factor 22 (Homo sapiens) / activity (Tm shift, normalised) / O=C(Nc1nnc(-c2ccc(F)cc2)s1)c1c(F)cccc1Cl : value?
0.279

Then this molecule: CN(C)CC(=O)N1[C@H](CO)[C@@H](c2ccc(-c3cccc(C(=O)N(C)C)c3)cc2)[C@@H]1C#N
0.074

Then this molecule: CN(Cc1ccccc1)S(=O)(=O)c1nnc(NC(=O)c2ccccc2F)s1
-0.151

Then this molecule: Cc1ccc(S(=O)(=O)Oc2ccc(/C=N/NC(=O)c3ccncc3)cc2)cc1
0.38

Then this molecule: CC1(C)CC(=O)C(C2c3ccccc3S(=O)(=O)c3ccccc32)C(=O)C1
42.9

Then this molecule: Cc1ccc(C(=O)Nc2nc3ccc(Cl)cc3s2)o1
0.029

Then this molecule: O=C(Nc1ccc(F)cc1)N1C[C@@H]2[C@H](c3ccccc31)[C@H](CO)N2Cc1ccccc1
-0.206
